applied_conditions: buffer; pH 7.4; 200.0 µM
Form field: solubility kinetic (one value per entry).
measured_attribute: solubility kinetic (µg/mL)

> print(dat)
                                    molecule  measured.attribute  readout.qualifier  value
 1      CCCCOc1ccc(C(=O)NCC(=O)NC2CCCCC2)cc1  solubility kinetic                  =    4.7
 2       COc1cc(NC(=S)N2CCN(CCO)CC2)cc(OC)c1  solubility kinetic                  >   48.8
 3             O=C(Nc1ccc2c(c1)OCCO2)C1CCCC1  solubility kinetic                  >   37.1
 4             OCc1nc2ccccc2n1Cc1c(F)cccc1Cl  solubility kinetic                  =   14.4
 5                O=C(NCCCO)c1cc2ccccc2[nH]1  solubility kinetic                  >   32.7
 6  CNC(=O)c1ccc(Nc2nc(-c3ccccc3)nc3ccccc23)cc1  solubility kinetic                  =   14.9
 7     O=C(c1ccc(Cl)cc1[N+](=O)[O-])N1CCOCC1  solubility kinetic                  =   40.2
 8         COc1cc2ccccc2cc1C(=O)Nc1cc(C)ccn1  solubility kinetic                  =    4.2
 9  CCOC(=O)C(=CNc1ccc(Oc2cncc(Cl)c2)nc1)C(=O)OCC  solubility kinetic                  =      5
10           CN=C(Nc1ccc(C(=O)OC)s1)c1ccccc1  solubility kinetic                  =   29.6
11  COC(=O)c1cc(CNC(=O)CC(C)c2ccccc2)ccc1OC (centres undefined)  solubility kinetic                  >   51.2
12  CC(OC(=O)C1CC1)C(=O)Nc1cccc(S(=O)(=O)N2CCOCC2)c1 (centres undefined)  solubility kinetic                  >   57.4
13     CCc1ccc(S(=O)(=O)n2c(C)nc3ccccc32)cc1  solubility kinetic                  =   40.3
14  Cc1ccc(S(=O)(=O)N2CCOCC2)cc1C(=O)NC1=NCCS1  solubility kinetic                  >   55.4
15               COc1ccccc1OCCNC(=O)C1CCCCC1  solubility kinetic                  =   33.8
16     Cc1ccc(O)c(NC(=O)c2cc(-c3cccs3)on2)c1  solubility kinetic                  =    0.6
17   O=C(Nc1ccc(OC(F)(F)F)cc1)c1ccc2nccnc2c1  solubility kinetic                  =   11.4
18  COC(=O)c1ccc(NS(=O)(=O)c2ccc(S(=O)(=O)N3CCOCC3)cc2)cc1  solubility kinetic                  >   66.1
19       O=C(NCCc1ccc(F)cc1)c1cc2ccccc2oc1=O  solubility kinetic                  <    0.7
20             O=C(Nc1ccccc1C(F)(F)F)C1CCCC1  solubility kinetic                  =   30.4
21       COc1cccc(C=NCCCN=Cc2cccc(OC)c2O)c1O  solubility kinetic                  >   51.4
22  CN(CC(=O)Nc1ccc(F)cc1)C(=O)Cn1cnc2ccc([N+](=O)[O-])cc2c1=O  solubility kinetic                  =    5.6
23       O=c1oc2ccc(Cl)cc2nc1/C=C(\O)c1cccs1  solubility kinetic                  =   20.9
24  N#CCCN(C(=O)CN1c2cccc3cccc(c23)S1(=O)=O)c1ccccc1  solubility kinetic                  =     15
25                  COc1ccc(Cl)cc1NC(=S)NCCO  solubility kinetic                  >   39.1
26  CC(=O)NNC(=O)c1[nH]c2ccc(Br)cc2c1-c1ccccc1  solubility kinetic                  >   55.8
27                CCN1CCC(O)(C#Cc2ccccc2)CC1  solubility kinetic                  =   33.5
28         CCOc1cc([N+](=O)[O-])c2nc(N)sc2c1  solubility kinetic                  =    4.3
29  CC(=O)c1c(C)oc2ccc(NS(=O)(=O)c3ccc(F)cc3C)cc12  solubility kinetic                  <    0.8
30  CC1CC(=O)Nc2ccccc2N1C(=O)CSc1ccc2ccccc2n1 (centres undefined)  solubility kinetic                  >   56.6
31               Nc1sc2c(c1C(=O)NC1CC1)CCCC2  solubility kinetic                  =     31
32  COc1ccc(N2CCN(c3cc(C)c4ccc(C)cc4n3)CC2)cc1  solubility kinetic                  =    1.1
33                    CSc1ccc(CN2CCCCCC2)cc1  solubility kinetic                  =   22.1
34  Fc1ccc(C2CC(c3ccco3)=Nc3ccccc3S2)cc1 (centres undefined)  solubility kinetic                  <    0.7
35  CC1CN(C(=S)Nc2ccc(Br)cc2)CC(C)O1 (centres undefined)  solubility kinetic                  =   48.5
36   COc1ccccc1C(=O)Nc1cccc(C(=O)c2ccccc2)c1  solubility kinetic                  =    3.5
37       Cc1nc2cc(NS(=O)(=O)c3ccccc3F)ccc2s1  solubility kinetic                  =   35.6
38  O=C(O)c1c(NC(=O)N(CCO)Cc2ccccc2)sc2c1CCCC2  solubility kinetic                  =   18.3
39  COc1ccc(Br)cc1/C=C(\C(=O)O)c1ccc(S(=O)(=O)N2CCCC2)s1  solubility kinetic                  >   70.9
40          CCOCCCNC(=O)/C(C#N)=C/c1ccc(C)o1  solubility kinetic                  =   35.4
41  Cc1onc(-c2ccccc2)c1-c1nc2cc(Cl)ccc2c(=O)o1  solubility kinetic                  =    3.7
42  CCOc1ccccc1C(=O)NC(C)CCc1ccccc1 (centres undefined)  solubility kinetic                  =   22.2
43  O=C(O)CCCC(=O)Nc1ccc(Oc2cccc(C(F)(F)F)c2)nc1  solubility kinetic                  >   55.2
44  Cc1csc2nc(O)c(C(=O)NCCCc3ccccc3)c(=O)n12  solubility kinetic                  =    4.2
45                   S=C(Nc1ccccn1)NC1CCCCC1  solubility kinetic                  =    5.7
46  OC(CCN1CCCCC1)c1ccc(-c2ccccc2)cc1 (centres undefined)  solubility kinetic                  >   44.3
47     COc1ccc(NC(=O)Nc2ccc3c(c2)OCO3)c(C)c1  solubility kinetic                  =    1.2
48    C1=C(c2c[nH]c3ccccc23)CCN(Cc2ccccc2)C1  solubility kinetic                  =    7.2
49  O=C(/C=C/c1ccccc1[N+](=O)[O-])NCc1ccccc1Cl  solubility kinetic                  =    1.5
